# Tested On: Adenosine receptor A3 (Homo sapiens, UniProt P0DMS8); note: assay procedure not described here
# Sequence (P0DMS8 whole entry): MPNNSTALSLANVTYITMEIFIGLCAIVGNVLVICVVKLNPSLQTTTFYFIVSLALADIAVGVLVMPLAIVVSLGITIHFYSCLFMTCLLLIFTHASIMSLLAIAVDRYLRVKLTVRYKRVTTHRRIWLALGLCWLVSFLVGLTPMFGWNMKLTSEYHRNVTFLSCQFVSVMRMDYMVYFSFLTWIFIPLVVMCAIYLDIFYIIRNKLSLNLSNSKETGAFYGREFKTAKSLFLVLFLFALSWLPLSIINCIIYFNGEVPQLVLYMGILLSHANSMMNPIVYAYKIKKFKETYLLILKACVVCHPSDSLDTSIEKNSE
Assay Metric: AC50

## Input Missing value: AC50, Adenosine receptor A3 (Homo sapiens, UniProt P0DMS8), entry CC(C)OC(=O)CCC/C=C\C[C@@H]1[C@@H](CC[C@@H](O)CCc2ccccc2)[C@H](O)C[C@@H]1O . Fill in?
## Output > 30 µM

* * *

# Tested On: Equilibrative nucleoside transporter 1 (Homo sapiens, UniProt Q99808); note: assay procedure not described here
# Sequence (Q99808 whole entry): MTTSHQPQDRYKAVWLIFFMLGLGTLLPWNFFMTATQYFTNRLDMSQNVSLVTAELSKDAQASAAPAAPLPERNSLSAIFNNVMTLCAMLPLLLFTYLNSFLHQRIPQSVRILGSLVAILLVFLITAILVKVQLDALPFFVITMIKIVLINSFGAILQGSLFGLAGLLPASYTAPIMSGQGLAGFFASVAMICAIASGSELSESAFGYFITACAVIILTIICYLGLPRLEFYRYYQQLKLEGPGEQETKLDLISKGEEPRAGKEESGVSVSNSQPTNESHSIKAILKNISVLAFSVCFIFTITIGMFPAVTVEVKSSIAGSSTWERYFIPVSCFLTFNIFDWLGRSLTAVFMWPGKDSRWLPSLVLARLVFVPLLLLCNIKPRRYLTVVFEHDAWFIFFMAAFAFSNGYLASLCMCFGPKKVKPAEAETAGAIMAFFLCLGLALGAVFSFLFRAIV
Each record here notes measured AC50.

// below: answered molecules
# Molecule, AC50
measured = [
    ("CO/N=C(\\C(=O)N[C@@H]1C(=O)N2C(C(=O)O)=C(CSc3nnnn3C)CS[C@H]12)c1csc(N)n1", "> 30 µM"),
    ("NC(=O)OCC(COC(N)=O)c1ccccc1 [FELBAMATE]", "> 10 µM"),
    ("CCC(CC)(CC(=O)Nc1cccc(/C=C/c2nc(C3CCC3)cs2)c1)C(=O)O", "> 30 µM"),
    ("C[C@H](CSC(=O)c1ccccc1)C(=O)N1C[C@@H](Sc2ccccc2)C[C@H]1C(=O)O", "> 10 µM"),
]

## Input Look up AC50: CC1(C)O[C@@H]2C[C@H]3[C@@H]4CCC5=CC(=O)C=C[C@]5(C)[C@H]4[C@@H](O)C[C@]3(C)[C@]2(C(=O)CO)O1 [DESONIDE]
## Output > 10 µM

## Input Look up AC50: C1CCC(C(CC2CCCCN2)C2CCCCC2)CC1 (configuration not stated)
## Output > 30 µM

## Input Look up AC50: COc1ccc(-c2ccc3cc(C(=O)O)ccc3c2)cc1C12CC3CC(CC(C3)C1)C2
## Output > 30 µM

## Input Look up AC50: CO[C@@H]1[C@@H](O[C@@H]2O[C@H](C)[C@@H](O[C@H]3C[C@@](C)(O)[C@@H](OC(=O)CC(C)C)[C@H](C)O3)[C@H](N(C)C)[C@H]2O)[C@@H](CC=O)C[C@@H](C)[C@@H](O)/C=C/C=C/C[C@@H](C)OC(=O)C[C@H]1OC(C)=O
## Output > 10 µM

## Input Look up AC50: COc1ccc2c3c1O[C@H]1C(=O)CC[C@@]4(O)[C@@H](C2)N(C)CC[C@]314
## Output > 30 µM

* * *

Reported values: AC50 for 5-hydroxytryptamine receptor 2C (Homo sapiens, UniProt P28335), one per item.

# Compound, Result
data = [
    ("C=CCN1C[C@H](C(=O)N(CCCN(C)C)C(=O)NCC)C[C@@H]2c3cccc4[nH]cc(c34)C[C@H]21", "> 30 µM"),
    ("CCC1(CC)C(=O)NCC(C)C1=O (configuration not stated)", "> 30 µM"),
    ("CC[C@H]1CN2CCc3cc(OC)c(OC)cc3[C@@H]2C[C@@H]1C[C@H]1NCCc2cc(OC)c(OC)cc21", "> 30 µM"),
    ("CC1(C)NC(=O)N(c2ccc([N+](=O)[O-])c(C(F)(F)F)c2)C1=O [NILUTAMIDE]", "> 30 µM"),
]

## Input Missing value: AC50, 5-hydroxytryptamine receptor 2C (Homo sapiens, UniProt P28335), entry CN1[C@@H]2CC[C@H]1C[C@@H](OC(c1ccccc1)c1ccccc1)C2 . Fill in?
## Output 12.4 µM

## Input Missing value: AC50, 5-hydroxytryptamine receptor 2C (Homo sapiens, UniProt P28335), entry CN1C(=O)CCS(=O)(=O)C1c1ccc(Cl)cc1 (configuration not stated) . Fill in?
## Output > 30 µM

## Input Missing value: AC50, 5-hydroxytryptamine receptor 2C (Homo sapiens, UniProt P28335), entry CC(C)=CCC/C(C)=C/C=C/C(C)=C/C=C/C(C)=C/C=C/C=C(C)/C=C/C=C(C)/C=C/C=C(\C)CCC=C(C)C . Fill in?
## Output > 30 µM

## Input Missing value: AC50, 5-hydroxytryptamine receptor 2C (Homo sapiens, UniProt P28335), entry CN1C(=O)C(O)N=C(c2ccccc2)c2cc(Cl)ccc21 (configuration not stated) . Fill in?
## Output > 30 µM

## Input Missing value: AC50, 5-hydroxytryptamine receptor 2C (Homo sapiens, UniProt P28335), entry CC/C(=C(\c1ccccc1)c1ccc(OCCN(C)C)cc1)c1ccccc1 . Fill in?
## Output 7 µM

* * *

Each record here notes measured AC50.
# Tested On: 5-hydroxytryptamine receptor 2B (Homo sapiens, UniProt P41595)
# Sequence (P41595 whole entry): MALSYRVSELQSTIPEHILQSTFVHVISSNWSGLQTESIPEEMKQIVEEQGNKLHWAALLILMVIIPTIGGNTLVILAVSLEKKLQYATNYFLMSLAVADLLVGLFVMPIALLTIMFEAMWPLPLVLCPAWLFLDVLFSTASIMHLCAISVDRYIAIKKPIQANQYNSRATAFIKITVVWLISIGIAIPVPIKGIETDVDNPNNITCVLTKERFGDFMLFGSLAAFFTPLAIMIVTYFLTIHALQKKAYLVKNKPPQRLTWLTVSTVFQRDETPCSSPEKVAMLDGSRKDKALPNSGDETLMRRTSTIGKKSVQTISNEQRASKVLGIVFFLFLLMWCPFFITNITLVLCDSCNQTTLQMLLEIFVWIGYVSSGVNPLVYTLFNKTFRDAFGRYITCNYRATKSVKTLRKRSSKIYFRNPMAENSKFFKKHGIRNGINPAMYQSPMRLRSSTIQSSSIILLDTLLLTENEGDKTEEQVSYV
# Assay type: functional, cell-based

// below: answered molecules
# Molecule, Assay Metric, Result
measured = [
    ("COc1ccccc1N1CCN(CC(O)COc2cccc3ccccc23)CC1 (stereo not given) [NAFTOPIDIL]", "AC50", "0.84 µM"),
    ("CC(=O)OCC(=O)[C@@]12N=C(C)O[C@@H]1C[C@H]1[C@@H]3CCC4=CC(=O)C=C[C@]4(C)[C@H]3[C@@H](O)C[C@@]12C [DEFLAZACORT]", "AC50", "> 30 µM"),
    ("CCCCc1ncc(/C=C(\\Cc2cccs2)C(=O)O)n1Cc1ccc(C(=O)O)cc1 [EPROSARTAN]", "AC50", "> 10 µM"),
    ("C#C[C@]1(O)CC[C@H]2[C@@H]3CCC4=Cc5oncc5C[C@]4(C)[C@H]3CC[C@@]21C [DANAZOL]", "AC50", "> 10 µM"),
]

Please find the next molecule below.
## Input Look up AC50: O=C1Nc2ccc(Cl)cc2[C@@](C#CC2CC2)(C(F)(F)F)O1 [EFAVIRENZ]
## Output > 10 µM

* * *

# Tested On: 5-hydroxytryptamine receptor 2B (Homo sapiens, UniProt P41595)
# Format: functional, cell-based
Assay Metric: AC50

# Molecule, Assay Metric, Result
records = [
    ("CC(C)C[C@H]1C(=O)N2CCC[C@H]2[C@]2(O)O[C@](NC(=O)[C@@H]3C[C@@H]4c5cccc6[nH]cc(c56)C[C@H]4N(C)C3)(C(C)C)C(=O)N12 [DIHYDROERGOCRYPTINE]", "AC50", "> 30 µM"),
    ("CC(=O)Nc1ccc(O)cc1 [ACETAMINOPHEN]", "AC50", "> 30 µM"),
    ("N=C1CCCN1Cc1[nH]c(=O)[nH]c(=O)c1Cl", "AC50", "> 30 µM"),
    ("CC1=C(/C=C/C(C)=C/C=C/C(C)=C/C=C/C=C(C)/C=C/C=C(C)/C=C/C2=C(C)CCCC2(C)C)C(C)(C)CCC1 [BETA CAROTENE]", "AC50", "> 30 µM"),
    ("N=c1ccn2c(n1)O[C@H]1[C@H](O)[C@@H](CO)O[C@H]12 [ANCITABINE]", "AC50", "> 30 µM"),
    ("O=C(CCNNC(=O)c1ccncc1)NCc1ccccc1 [NIALAMIDE]", "AC50", "> 30 µM"),
    ("COc1ccccc1N1CCN(CC(O)COc2cccc3ccccc23)CC1 (centres undefined) [NAFTOPIDIL]", "AC50", "> 30 µM"),
    ("CC(=O)c1ccc2c(c1)N(CCCN(C)C)c1ccccc1S2 [ACEPROMAZINE]", "AC50", "> 30 µM"),
]

Please find the next molecule below.
## Input Look up AC50: NC(=O)C[C@H](N)C(=O)O [ASPARAGINE]
## Output > 30 µM

* * *

# Tested On: 5-hydroxytryptamine receptor 1A (Homo sapiens); note: assay procedure not described here
# Sequence (P08908 whole entry): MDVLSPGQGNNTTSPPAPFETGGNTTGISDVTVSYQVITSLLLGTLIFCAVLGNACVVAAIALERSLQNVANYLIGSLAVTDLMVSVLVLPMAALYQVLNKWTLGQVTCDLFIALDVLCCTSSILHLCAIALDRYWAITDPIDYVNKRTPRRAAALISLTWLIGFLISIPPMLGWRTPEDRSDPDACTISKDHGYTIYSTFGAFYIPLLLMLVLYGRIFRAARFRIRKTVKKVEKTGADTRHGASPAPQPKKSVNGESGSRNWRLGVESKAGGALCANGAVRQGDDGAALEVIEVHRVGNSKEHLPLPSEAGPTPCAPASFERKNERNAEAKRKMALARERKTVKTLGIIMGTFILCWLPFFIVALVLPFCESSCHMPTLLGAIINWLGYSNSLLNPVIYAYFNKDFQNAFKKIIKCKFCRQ
# Assay type: functional, cell-based
Assay Metric: AC50

# Compound, AC50
measured = [
    ("CCCCc1ncc(/C=C(\\Cc2cccs2)C(=O)O)n1Cc1ccc(C(=O)O)cc1 [EPROSARTAN]", "> 10 µM"),
]

## Input Missing value: AC50, 5-hydroxytryptamine receptor 1A (Homo sapiens), entry C[C@]12CCC(=O)C=C1CC[C@@H]1[C@@H]2[C@@H](O)C[C@@]2(C)[C@H]1CC[C@]2(O)C(=O)CO [HYDROCORTISONE] . Fill in?
## Output > 10 µM

## Input Missing value: AC50, 5-hydroxytryptamine receptor 1A (Homo sapiens), entry COC(=O)C1=C(C)NC(C)=C(C(=O)OC(C)(C)CN(C)CCC(c2ccccc2)c2ccccc2)C1c1cccc([N+](=O)[O-])c1 (stereo not given) [LERCANIDIPINE] . Fill in?
## Output > 30 µM

* * *

Reported values: AC50 for Mu-type opioid receptor (Homo sapiens, UniProt P35372), one per item.

## Input Look up AC50: C#C[C@]1(O)CC[C@H]2[C@@H]3CCC4=Cc5oncc5C[C@]4(C)[C@H]3CC[C@@]21C
## Output > 30 µM

## Input Look up AC50: O=C(OCC(O)CO)c1ccccc1Nc1ccnc2cc(Cl)ccc12 (centres undefined)
## Output > 30 µM

## Input Look up AC50: CCc1c(Cl)c(O)c(Cl)c(O)c1C(=O)O[C@H]1[C@H](O)[C@H](OC)[C@H](OC/C2=C\C=C\C[C@H](O)/C(C)=C/[C@H](CC)[C@@H](O[C@@H]3OC(C)(C)[C@@H](OC(=O)C(C)C)[C@H](O)[C@@H]3O)/C(C)=C/C(C)=C/C[C@@H]([C@@H](C)O)OC2=O)O[C@@H]1C
## Output > 10 µM

## Input Look up AC50: Clc1ccc(C(c2ccccc2Cl)C(Cl)Cl)cc1 (centres undefined)
## Output > 30 µM
